Here the recorded koff is given for each entry.
molecular target: T1, cSNK:BSA conjugate (bovine, head-to-tail cyclized; conjugated to BSA carrier); assay: BLI 2:1 fit, site 2 (kdis2); 12.5 nM row
T1 construct: also called BSA-cSNK
T1 sequence (P02769 25-607 limits assumed): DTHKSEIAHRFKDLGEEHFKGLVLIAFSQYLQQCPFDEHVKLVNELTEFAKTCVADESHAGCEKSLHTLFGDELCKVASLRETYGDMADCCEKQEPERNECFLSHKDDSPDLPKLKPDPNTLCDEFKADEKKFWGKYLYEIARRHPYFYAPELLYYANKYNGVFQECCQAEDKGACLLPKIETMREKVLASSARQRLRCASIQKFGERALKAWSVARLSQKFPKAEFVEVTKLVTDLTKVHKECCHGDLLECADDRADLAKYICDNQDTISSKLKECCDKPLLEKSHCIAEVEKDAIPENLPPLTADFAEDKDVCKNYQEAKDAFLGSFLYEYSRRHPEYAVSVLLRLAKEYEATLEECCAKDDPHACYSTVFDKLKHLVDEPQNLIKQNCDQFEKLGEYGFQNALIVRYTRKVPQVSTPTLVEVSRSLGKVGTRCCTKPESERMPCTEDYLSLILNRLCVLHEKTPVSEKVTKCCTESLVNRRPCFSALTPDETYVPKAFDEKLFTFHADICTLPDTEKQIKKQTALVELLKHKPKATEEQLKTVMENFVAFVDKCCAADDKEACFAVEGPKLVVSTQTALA
Express it in s⁻¹; write the number only.

Note koff for the binder shown: hu5E3-IgG1 (antibody, V domains shown, human IgG1/kappa; also called humanized 5E3 IgG1; IHA variant) VH: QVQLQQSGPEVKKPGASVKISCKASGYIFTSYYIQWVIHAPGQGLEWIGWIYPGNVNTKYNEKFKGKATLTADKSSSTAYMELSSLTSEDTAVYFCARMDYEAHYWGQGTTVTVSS VL: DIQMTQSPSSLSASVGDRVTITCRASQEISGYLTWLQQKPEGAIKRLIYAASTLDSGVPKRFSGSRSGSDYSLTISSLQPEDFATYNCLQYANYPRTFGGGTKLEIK
0.012

Note koff for the binder shown: rehu5E3-IgG4 (antibody, V domains shown, human IgG4/kappa; also called IgG4 rehu version) VH: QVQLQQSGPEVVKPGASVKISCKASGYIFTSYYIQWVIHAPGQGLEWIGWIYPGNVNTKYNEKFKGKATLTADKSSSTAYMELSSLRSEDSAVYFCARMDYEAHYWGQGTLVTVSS VL: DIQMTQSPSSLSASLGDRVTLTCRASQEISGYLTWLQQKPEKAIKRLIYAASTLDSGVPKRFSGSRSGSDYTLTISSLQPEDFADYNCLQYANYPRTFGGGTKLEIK
0.0175

Ref: patent US20170008955A1
